- run_conditions: buffer; pH 7.4; 200.0 µM
log10 solubility kinetic overview
Answers are given as log10 of solubility kinetic in µg/mL.

- CCc1cccc(C)c1NC(=O)c1ccc2c(c1)CCN2S(C)(=O)=O: 1.29

Which measured log10 solubility kinetic value corresponds to CCC(C)Nc1nc(C)nc2c1oc1ccccc12.Cl (stereo not drawn) ?
1.62

###

- run_conditions: buffer; pH 7.4; 200.0 µM
Listing of recorded solubility kinetic by entry.

Answered cases to consult:
• C=CCNC(=O)c1ccc(NC(=O)C2=CSCCO2)cc1 = > 45.7 µg/mL
• Cc1csc(=O)n1CCC(=O)OC(C)C(=O)NCc1ccccc1 (stereo not drawn) = > 52.3 µg/mL

// lookup solubility kinetic for Cc1ccc(C)c(NC(=O)C2C3C=CC(O3)C2C(=O)O)c1 (stereo not drawn)
> 43.1 µg/mL
